// data source = patent US8772499B2

- protocol.text: In vitro rat microsomal stability assay
- Type: in vitro ADME, rat (Sprague-Dawley)
- measurement.parameters: Sprague-Dawley, rat, microsomes, 0.5 h, 0.5 μM, pH 7.4
Flag rule - RAT MICROSOMAL STABILITY (% REMAINING AFTER 30 MINUTES) less than 0.9% flags class 1; the remaining entries get class 0.

Sample answers from the record:
{"columns": ["compound", "label.value"],
 "data": [
  ["CC(=O)O[C@H](c1ccccn1)C1(c2ccc(OC(F)(F)F)cc2)CCC1 [Example 288]", "class 1"],
  ["OC(c1ccccn1)C1(c2ccc(C(F)(F)F)cc2)CNC1 (stereo not shown) [Example 152]", "class 0"],
  ["ON=C1CC(c2ccc(OC(F)(F)F)cc2)([C@H](O)c2ccccn2)C1 (stereo partly shown) [Example 248]", "class 0"],
  ["Cc1cc(C(F)(F)F)cc(C2([C@@H](O)c3ccccn3)CC(=O)C2)n1 [Example 291]", "class 0"],
  ["OC(c1ccccn1)C1(c2ccc(F)c(Cl)c2)CC2(C1)OCCO2 (stereo not shown) [Example 255]", "class 1"]
]}

Does OC(C1CCc2cccnc21)C1(c2cccc(OC(F)(F)F)c2)CCC1 (stereo not shown) [Example 190] have RAT MICROSOMAL STABILITY (% REMAINING AFTER 30 MINUTES) strictly under 0.9%?
class 1

A record lists OC(C1CCCc2cccnc21)C1(c2ccc(F)c(F)c2)CCC1 (single isomer, unassigned) [Example 170] . Is its RAT MICROSOMAL STABILITY (% REMAINING AFTER 30 MINUTES) below 0.9%?
class 1

Find out if reported RAT MICROSOMAL STABILITY (% REMAINING AFTER 30 MINUTES) for OC(c1ccccn1)C1(c2cccc(F)c2)CCCO1 (single isomer, unassigned) [Example 101] is less than 0.9%
class 1

Input O[C@H](c1ccccn1)C1(c2ccc(Cl)c(Cl)c2)CC1 [Example 231] ; condition: RAT MICROSOMAL STABILITY (% REMAINING AFTER 30 MINUTES) strictly below 0.9%. Does it hold?
class 0

Determine if O[C@@H](c1ccccn1)C1(c2ccc(OC(F)(F)F)cc2)CC(F)(F)C1 [Example 159] shows RAT MICROSOMAL STABILITY (% REMAINING AFTER 30 MINUTES) strictly lower than 0.9%.
class 0

Is 0.9% strictly greater than the compound's reported RAT MICROSOMAL STABILITY (% REMAINING AFTER 30 MINUTES)? compound: OC(CC1(c2cccc(OC(F)(F)F)c2)CCC1)c1ccccn1 (stereo not shown) [Example 77]
class 0

# strict comparison: is reported RAT MICROSOMAL STABILITY (% REMAINING AFTER 30 MINUTES) < 0.9%? input = O[C@@H](c1ccccn1)C1(c2cc(C(F)(F)F)ccn2)CCC1 [Example 122]
class 0

Take the compound CCN(CC)c1ccc(C2(C(O)c3ccccn3)CCC2)cc1 (stereo not shown) [Example 18] and say whether its RAT MICROSOMAL STABILITY (% REMAINING AFTER 30 MINUTES) is less than 0.9%.
class 1

Strictly below 0.9%: is that where RAT MICROSOMAL STABILITY (% REMAINING AFTER 30 MINUTES) of CC(C)(C)OC(=O)N1CC(c2ccc(C(F)(F)F)cc2)(C(O)c2ccccn2)C1 (stereo not shown) [Example 153] sits?
class 0

For this compound, is RAT MICROSOMAL STABILITY (% REMAINING AFTER 30 MINUTES) lower than 0.9%? CC1(O)CC(c2cccc(C(F)(F)F)c2)(C(O)c2ccccn2)C1 (single isomer, unassigned) [Example 236]
class 0

Bench note: check whether OC(C1CCCc2cccnc21)C1(c2ccc(C(F)(F)F)cc2)CCC1 (single isomer, unassigned) [Example 183] shows RAT MICROSOMAL STABILITY (% REMAINING AFTER 30 MINUTES) below 0.9%
class 1

# strict comparison: is reported RAT MICROSOMAL STABILITY (% REMAINING AFTER 30 MINUTES) < 0.9%? input = O[C@H](c1ccccn1)C1(c2ccc(C(F)(F)F)c(F)c2)CCC1 [Example 29]
class 0

Threshold test, RAT MICROSOMAL STABILITY (% REMAINING AFTER 30 MINUTES) < 0.9%: OC(c1ccccn1)C1(c2cccc(C(F)(F)F)c2)CCC1 (stereo not shown) [Example 6]
class 0

Decide: RAT MICROSOMAL STABILITY (% REMAINING AFTER 30 MINUTES) of N[C@H]1CCC[C@H]1[C@@H](O)C1(c2ccccc2F)CCC1 [Example 226] strictly below 0.9%?
class 1

Strictly below 0.9% in RAT MICROSOMAL STABILITY (% REMAINING AFTER 30 MINUTES)? OC(c1ccccn1)C1(C2CCC(C(F)(F)F)CC2)CCC1 (stereo not shown) [Example 280]
class 1

Dear reviewer, please state whether OC(CC1(c2ccc(C(F)(F)F)cc2)CCC1)c1ccccn1 (stereo not shown) [Example 75] has RAT MICROSOMAL STABILITY (% REMAINING AFTER 30 MINUTES) strictly beneath 0.9%.
class 1

Bench note: check whether OC(c1ccccn1)C1(c2cccc(Cl)c2)CCCO1 (single isomer, unassigned) [Example 104] shows RAT MICROSOMAL STABILITY (% REMAINING AFTER 30 MINUTES) below 0.9%
class 1

Please determine if OC(c1ccccn1)C1(c2ccc(C(F)(F)F)cc2)CCCO1 (single isomer, unassigned) [Example 88] is below 0.9% in terms of RAT MICROSOMAL STABILITY (% REMAINING AFTER 30 MINUTES).
class 0

Is RAT MICROSOMAL STABILITY (% REMAINING AFTER 30 MINUTES) strictly under 0.9% for the entry NC1CCCC1C(O)C1(c2cccc(C(F)(F)F)c2)CCC1 (stereo not shown) [Example 204] ?
class 0

Strictly below 0.9%: is that where RAT MICROSOMAL STABILITY (% REMAINING AFTER 30 MINUTES) of O[C@H](c1ccccn1)C1(c2ccnc(C(F)(F)F)c2)CCC1 [Example 240] sits?
class 0
